Recorded pEC50 for the following molecules
# TEST_SYSTEM: 5-HT2C receptor (Homo sapiens, UniProt P28335)
# Construct: β-galactosidase enzyme-complementation fragment (ProLink-type donor)
# Sequence (P28335 33-458): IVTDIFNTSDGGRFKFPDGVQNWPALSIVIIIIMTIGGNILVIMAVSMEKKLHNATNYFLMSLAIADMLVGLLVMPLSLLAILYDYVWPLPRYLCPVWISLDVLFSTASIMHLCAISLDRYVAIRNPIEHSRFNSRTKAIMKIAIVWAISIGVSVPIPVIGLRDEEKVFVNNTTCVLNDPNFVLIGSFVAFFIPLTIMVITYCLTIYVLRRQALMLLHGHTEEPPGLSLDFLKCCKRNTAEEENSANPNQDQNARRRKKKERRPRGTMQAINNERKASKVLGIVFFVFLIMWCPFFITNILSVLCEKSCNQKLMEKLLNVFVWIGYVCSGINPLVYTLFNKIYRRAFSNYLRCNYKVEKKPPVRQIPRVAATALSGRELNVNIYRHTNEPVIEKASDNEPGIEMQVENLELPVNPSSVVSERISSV
# Sequence (P32121 whole entry partner, the tested form may be a part): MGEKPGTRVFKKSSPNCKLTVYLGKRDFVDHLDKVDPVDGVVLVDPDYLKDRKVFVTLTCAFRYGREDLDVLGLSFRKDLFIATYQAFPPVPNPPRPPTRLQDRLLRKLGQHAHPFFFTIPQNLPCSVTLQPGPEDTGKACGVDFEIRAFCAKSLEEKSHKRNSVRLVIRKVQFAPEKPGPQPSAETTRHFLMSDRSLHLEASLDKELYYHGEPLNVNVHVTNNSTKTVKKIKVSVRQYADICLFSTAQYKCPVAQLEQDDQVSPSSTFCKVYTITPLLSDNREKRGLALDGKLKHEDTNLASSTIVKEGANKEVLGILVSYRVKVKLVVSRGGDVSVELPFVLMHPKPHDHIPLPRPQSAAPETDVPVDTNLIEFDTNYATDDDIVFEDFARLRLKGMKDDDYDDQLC
# ASSAY_NOTES: Functional activity: beta-arrestin2 recruitment to the 5-HT2C receptor in U2OS_HTR2C_β-Arrestin cells (DiscoverX)
# MEASUREMENT_PARAMETERS: U2OS_HTR2C_β-Arrestin cells, 1.5 h incubation, chemiluminescent β-galactosidase complementation readout; read-out: Potency (EC50) in functional assay
pEC50: −log10 of the molar value.
ENDPOINT: pEC50

                                    molecule  endpoint   test_result
 0  CC1CNCc2cccc3c2N1CCC31CCC1 (centres unmarked)     pEC50        > 7.70
 1  CCC1(C)CCN2CCNCc3cccc1c32.O=C(O)C(F)(F)F (single isomer, unassigned) [Example 55]     pEC50  6.00 to 6.70
 2  Cc1ccc2c3c1N1CCCC1CN3CCNC2 (centres unmarked)     pEC50  6.70 to 7.70
 3  CCC1(C)CCN2CCNCc3cccc1c32.O=C(O)C(F)(F)F (single isomer, unassigned) [Example 54]     pEC50  6.00 to 6.70
 4            Cc1cc2c3c(c1)C1(CCC1)CCN3CCNC2     pEC50        > 7.70
 5  CC1CNCc2cccc3c2N1CCC31CC1 (centres unmarked)     pEC50  6.70 to 7.70
 6          c1cc2c3c(c1)N(CC1CCCC1)CCN3CCNC2     pEC50  6.00 to 6.70
 7  CC1CNCc2cccc3c2N1CC1CCCN31 (centres unmarked)     pEC50  6.70 to 7.70
 8  CC1CNCc2ccc(F)c3c2N1CC1CCCN31 (centres unmarked)     pEC50  6.00 to 6.70
 9  c1cc2c3c(c1)N(C1CCC1)CCN3CCNC2 [Example 33, 2,2,2-trifluoroacetate]     pEC50  6.00 to 6.70
10  CC1CNCc2cccc3c2N1CCN3C1CCCC1 (centres unmarked)     pEC50  6.00 to 6.70
11  Fc1ccc2c3c1N1CCCC1CN3CCNC2 (centres unmarked)     pEC50  6.00 to 6.70
12                   CCCN1CCN2CCNCc3cccc1c32     pEC50  6.70 to 7.70
13           c1cc2c3c(c1)N(C1CCCC1)CCN3CCNC2     pEC50  6.00 to 6.70
14             c1cc2c3c(c1)N(C1CC1)CCN3CCNC2     pEC50  6.70 to 7.70
15  CC1CNCc2cccc3c2N1CCC3(C)C (centres unmarked) [Example 51, 2,2,2-trifluoroacetate]     pEC50  6.70 to 7.70
16            c1cc2c3c(c1)N(CC1CC1)CCN3CCNC2     pEC50  6.00 to 6.70
17               CC1(C)CCN2CCNCc3c(F)ccc1c32     pEC50  6.00 to 6.70
18              Cc1ccc2c3c1C1(CCC1)CCN3CCNC2     pEC50        > 7.70
19                Cc1ccc2c3c1CNCCN3CCC21CCC1     pEC50  6.00 to 6.70
